- tgt: JAK3 (Homo sapiens, UniProt P52333)
- Sequence (P52333 whole entry): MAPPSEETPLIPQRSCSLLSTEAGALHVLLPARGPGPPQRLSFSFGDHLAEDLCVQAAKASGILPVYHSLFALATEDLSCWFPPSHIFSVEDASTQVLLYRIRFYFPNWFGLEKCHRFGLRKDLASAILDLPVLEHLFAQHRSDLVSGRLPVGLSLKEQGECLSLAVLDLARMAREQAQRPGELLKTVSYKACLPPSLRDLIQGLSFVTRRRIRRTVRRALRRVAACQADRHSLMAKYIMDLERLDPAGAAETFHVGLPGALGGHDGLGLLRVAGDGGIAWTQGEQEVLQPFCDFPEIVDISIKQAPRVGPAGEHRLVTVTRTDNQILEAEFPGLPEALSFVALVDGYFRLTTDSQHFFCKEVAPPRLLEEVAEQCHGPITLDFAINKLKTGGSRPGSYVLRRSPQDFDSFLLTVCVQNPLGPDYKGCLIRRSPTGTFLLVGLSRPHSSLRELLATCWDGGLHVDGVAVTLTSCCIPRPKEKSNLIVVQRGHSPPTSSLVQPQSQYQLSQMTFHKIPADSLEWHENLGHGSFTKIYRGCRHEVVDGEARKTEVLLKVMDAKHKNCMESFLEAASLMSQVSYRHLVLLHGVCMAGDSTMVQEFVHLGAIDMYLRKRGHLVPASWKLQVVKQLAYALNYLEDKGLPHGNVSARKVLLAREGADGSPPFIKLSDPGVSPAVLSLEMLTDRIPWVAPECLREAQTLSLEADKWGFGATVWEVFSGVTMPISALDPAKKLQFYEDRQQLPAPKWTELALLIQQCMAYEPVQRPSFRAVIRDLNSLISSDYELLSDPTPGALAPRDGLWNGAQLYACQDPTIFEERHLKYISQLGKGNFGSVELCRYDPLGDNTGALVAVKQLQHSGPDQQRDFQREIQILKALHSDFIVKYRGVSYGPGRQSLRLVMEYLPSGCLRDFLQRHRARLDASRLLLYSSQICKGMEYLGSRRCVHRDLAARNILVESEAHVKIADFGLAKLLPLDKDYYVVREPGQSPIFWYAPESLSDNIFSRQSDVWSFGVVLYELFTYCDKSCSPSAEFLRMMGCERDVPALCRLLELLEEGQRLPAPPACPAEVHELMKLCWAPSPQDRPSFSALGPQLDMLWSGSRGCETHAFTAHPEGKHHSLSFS
Ki: recorded values

Some entries whose results are on file:
C[C@H](Nc1nc(-c2cccnc2N)ncc1F)C(=O)NCC(F)(F)F [Compound 27]; 1 to 10 µM
CC(C)[C@@H](Nc1ccnc(-c2ccc(O)cc2)n1)C(=O)NCC(F)(F)F [Compound 167]; 1 to 10 µM

Request - read-out Ki | tested on JAK3 (Homo sapiens, UniProt P52333) | compound Nc1nc(Nc2ccc(F)cc2)nn1-c1cc(NCCC(=O)NCC(F)(F)F)ncn1 [Compound 35]
≤ 1 µM

Request - read-out Ki | tested on JAK3 (Homo sapiens, UniProt P52333) | compound CC(C)[C@@H](Nc1ccnc(-c2c[nH]c(C(=O)NCc3ccccc3)c2)n1)C(=O)NCC(F)(F)F [Compound 110]
1 to 10 µM

Request - read-out Ki | tested on JAK3 (Homo sapiens, UniProt P52333) | compound O=C(NCC(F)(F)F)[C@H]1CCCN1c1ccnc(-c2c[nH]c(C(=O)N3CC=CC3)c2)n1 [Compound 139]
≤ 1 µM

Request - read-out Ki | tested on JAK3 (Homo sapiens, UniProt P52333) | compound COc1ccc(Nc2nc(N)n(-c3ncc(F)c(NCCC(=O)NCC(F)(F)F)n3)n2)cc1 [Compound 50]
1 to 10 µM

Request - read-out Ki | tested on JAK3 (Homo sapiens, UniProt P52333) | compound CC(C)[C@H](Nc1ccnc(-c2cccnc2N)n1)C(=O)NCC(F)(F)F [Compound 28]
1 to 10 µM

Request - read-out Ki | tested on JAK3 (Homo sapiens, UniProt P52333) | compound C[C@H](Nc1nc(-c2ccnc(Cl)c2)ncc1F)C(=O)NCC(F)(F)F [Compound 2]
10 to 50 µM
